Reference source for all entries: patent US20210230570

- measured target: Factor X, P00742
- Sequence (P00742 whole entry, looked up): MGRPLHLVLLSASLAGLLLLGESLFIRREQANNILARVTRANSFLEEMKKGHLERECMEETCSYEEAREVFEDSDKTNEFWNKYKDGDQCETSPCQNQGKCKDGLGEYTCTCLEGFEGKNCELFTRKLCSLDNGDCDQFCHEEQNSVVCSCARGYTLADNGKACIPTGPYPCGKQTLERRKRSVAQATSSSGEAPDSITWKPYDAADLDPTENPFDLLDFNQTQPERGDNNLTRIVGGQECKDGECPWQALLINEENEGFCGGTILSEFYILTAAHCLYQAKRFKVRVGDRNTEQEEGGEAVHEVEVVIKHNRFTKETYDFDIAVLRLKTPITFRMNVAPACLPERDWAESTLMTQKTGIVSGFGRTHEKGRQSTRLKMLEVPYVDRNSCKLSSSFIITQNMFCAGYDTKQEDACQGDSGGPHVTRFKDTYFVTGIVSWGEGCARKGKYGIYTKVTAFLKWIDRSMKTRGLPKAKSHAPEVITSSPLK
Items are presented alongside their recorded kcat/KM.
property: kcat/KM (M⁻¹ s⁻¹)

{"columns": ["protein", "unit abbrev", "recorded result"],
 "data": [
  ["FIXa-D203N/F205T/E410N (protein) chain 1: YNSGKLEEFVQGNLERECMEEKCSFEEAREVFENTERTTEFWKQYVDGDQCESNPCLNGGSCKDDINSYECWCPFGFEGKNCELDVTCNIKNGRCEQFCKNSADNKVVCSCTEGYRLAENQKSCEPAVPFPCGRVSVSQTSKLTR chain 2: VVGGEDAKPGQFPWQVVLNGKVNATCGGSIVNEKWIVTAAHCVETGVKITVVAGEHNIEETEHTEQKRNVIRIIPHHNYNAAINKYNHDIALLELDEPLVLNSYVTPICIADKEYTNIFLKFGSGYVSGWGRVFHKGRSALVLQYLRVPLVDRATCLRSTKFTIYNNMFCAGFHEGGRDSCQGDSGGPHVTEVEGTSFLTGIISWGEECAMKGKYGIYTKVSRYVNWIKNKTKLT", "M⁻¹ s⁻¹", "4.2e+07"],
  ["FIXa-R338E/R403E/E410N (protein) chain 1: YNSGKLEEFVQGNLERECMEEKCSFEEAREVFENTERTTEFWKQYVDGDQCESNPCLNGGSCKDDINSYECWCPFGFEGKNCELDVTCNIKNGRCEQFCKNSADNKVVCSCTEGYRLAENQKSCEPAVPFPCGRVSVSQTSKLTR chain 2: VVGGEDAKPGQFPWQVVLNGKVDAFCGGSIVNEKWIVTAAHCVETGVKITVVAGEHNIEETEHTEQKRNVIRIIPHHNYNAAINKYNHDIALLELDEPLVLNSYVTPICIADKEYTNIFLKFGSGYVSGWGRVFHKGRSALVLQYLRVPLVDRATCLESTKFTIYNNMFCAGFHEGGRDSCQGDSGGPHVTEVEGTSFLTGIISWGEECAMKGKYGIYTKVSEYVNWIKNKTKLT", "M⁻¹ s⁻¹", "1.9e+08"],
  ["FIXa-R318Y/R338E/R403E (protein) chain 1: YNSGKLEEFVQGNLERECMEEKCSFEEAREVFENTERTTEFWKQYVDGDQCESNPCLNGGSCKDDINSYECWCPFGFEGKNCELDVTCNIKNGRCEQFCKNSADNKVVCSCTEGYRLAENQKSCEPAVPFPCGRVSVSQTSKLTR chain 2: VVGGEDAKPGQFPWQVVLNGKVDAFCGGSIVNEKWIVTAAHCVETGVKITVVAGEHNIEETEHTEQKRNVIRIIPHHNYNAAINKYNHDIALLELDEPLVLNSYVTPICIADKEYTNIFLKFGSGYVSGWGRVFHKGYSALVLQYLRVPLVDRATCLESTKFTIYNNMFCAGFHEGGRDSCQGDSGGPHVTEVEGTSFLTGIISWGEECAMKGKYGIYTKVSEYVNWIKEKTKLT", "M⁻¹ s⁻¹", "6.2e+07"],
  ["FIXa-K293E/R338E/R403E (protein) chain 1: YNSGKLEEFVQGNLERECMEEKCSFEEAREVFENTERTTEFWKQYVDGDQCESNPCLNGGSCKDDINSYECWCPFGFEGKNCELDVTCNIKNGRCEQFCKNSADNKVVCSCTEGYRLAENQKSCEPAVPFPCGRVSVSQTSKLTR chain 2: VVGGEDAKPGQFPWQVVLNGKVDAFCGGSIVNEKWIVTAAHCVETGVKITVVAGEHNIEETEHTEQKRNVIRIIPHHNYNAAINKYNHDIALLELDEPLVLNSYVTPICIADEEYTNIFLKFGSGYVSGWGRVFHKGRSALVLQYLRVPLVDRATCLESTKFTIYNNMFCAGFHEGGRDSCQGDSGGPHVTEVEGTSFLTGIISWGEECAMKGKYGIYTKVSEYVNWIKEKTKLT", "M⁻¹ s⁻¹", "1.7e+07"]
]}
